Test system: NCI-H226 lung
ASSAY_NAME: NCI tumour cell line growth inhibition, 48 h; in the data active = GI50 below about 0.43 µM; inactive = the rest
Respond only with the outcome that fits, drawn from Yes = active, No = inactive

Cc1ccc(Cc2cnc(NC(=O)/C=C/c3cccc(C)c3)s2)cc1 :: No
COc1ccc(/C(COc2ccc3c(=O)c(-c4ccccc4)coc3c2)=N\O)cc1 :: No
COc1cccc(/C=C/[N+](=O)[O-])c1 :: No
NC1CCC(Nc2nc(NCc3ccc(-c4ccccc4O)nc3)c3ncn(C4CCCC4)c3n2)CC1 (stereo not drawn) :: Yes
CC(C)[O-].CC(C)[O-].O=C1C=C([O-])C(=O)c2ccccc21.O=C1C=C([O-])C(=O)c2ccccc21.[Ti+4] :: No

Per the assay record, what outcome was assigned to COc1ccc(NC([Se])=NC23CC4CC(CC(C4)C2)C3)cc1 ?
No

Per the assay record, what outcome was assigned to C=C1C(=O)O[C@H]2[C@H]1CC/C(COC(=O)c1cc3ccccc3o1)=C\CC[C@@]1(C)O[C@@H]21 ?
No

Per the assay record, what outcome was assigned to O=C1CC(=O)N(C(=O)c2nn(-c3ccc(Cl)cc3)cc2O)N1 ?
No
